# credit: the supplement of paper PMC9112550

Tested on: Escherichia coli TOP10;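 note: peptides expressed intracellularly from a pBAD plasmid library in pooled LB shake-flask culture, induced with 0.3% L-arabinose, DNA abundance read by NGS, three biological replicates, DESeq2 with apeglm shrinkage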
Test: shrunken log2 fold change of peptide-encoding DNA abundance (4.5 h post-induction vs induction); higher = less antimicrobial activity (less host growth inhibition)
Conditions: time post-induction: 4.5 h; library: site-saturation at positions 5, 18, 19, 20
Please enter YES where shrunken log2 fold change is greater than or equal to -0.01, and NO where it is lower.

Does the reported shrunken log2 fold change for RRIRNRPPRLPRPRPRPWYRPRP fall at or above the -0.01 mark?
NO

Does the reported shrunken log2 fold change for RRIRDRPPRLPRPRPRPGCVPRP fall at or above the -0.01 mark?
YES

Does the reported shrunken log2 fold change for RRIRQRPPRLPRPRPRPDIVPRP fall at or above the -0.01 mark?
NO

Does the reported shrunken log2 fold change for RRIRGRPPRLPRPRPRPWHDPRP fall at or above the -0.01 mark?
NO

Does the reported shrunken log2 fold change for RRIRLRPPRLPRPRPRPDPFPRP fall at or above the -0.01 mark?
NO

Does the reported shrunken log2 fold change for RRIRSRPPRLPRPRPRPESFPRP fall at or above the -0.01 mark?
NO

Does the reported shrunken log2 fold change for RRIRDRPPRLPRPRPRPERCPRP fall at or above the -0.01 mark?
YES

Does the reported shrunken log2 fold change for RRIRDRPPRLPRPRPRPIRCPRP fall at or above the -0.01 mark?
NO

Does the reported shrunken log2 fold change for RRIRGRPPRLPRPRPRPWLCPRP fall at or above the -0.01 mark?
YES

Does the reported shrunken log2 fold change for RRIRFRPPRLPRPRPRPTFFPRP fall at or above the -0.01 mark?
NO

Does the reported shrunken log2 fold change for RRIRQRPPRLPRPRPRPSHIPRP fall at or above the -0.01 mark?
NO

Does the reported shrunken log2 fold change for RRIRARPPRLPRPRPRPWHKPRP fall at or above the -0.01 mark?
YES

Does the reported shrunken log2 fold change for RRIRERPPRLPRPRPRPDARPRP fall at or above the -0.01 mark?
NO

Does the reported shrunken log2 fold change for RRIRDRPPRLPRPRPRPCPIPRP fall at or above the -0.01 mark?
YES

Does the reported shrunken log2 fold change for RRIRSRPPRLPRPRPRPYMRPRP fall at or above the -0.01 mark?
NO

Does the reported shrunken log2 fold change for RRIRGRPPRLPRPRPRPMYTPRP fall at or above the -0.01 mark?
YES

Does the reported shrunken log2 fold change for RRIRRRPPRLPRPRPRPYRWPRP fall at or above the -0.01 mark?
NO

Does the reported shrunken log2 fold change for RRIRMRPPRLPRPRPRPFDHPRP fall at or above the -0.01 mark?
YES

Does the reported shrunken log2 fold change for RRIRYRPPRLPRPRPRPGADPRP fall at or above the -0.01 mark?
NO

Does the reported shrunken log2 fold change for RRIRMRPPRLPRPRPRPLCPPRP fall at or above the -0.01 mark?
NO

Does the reported shrunken log2 fold change for RRIRHRPPRLPRPRPRPQNIPRP fall at or above the -0.01 mark?
NO

Does the reported shrunken log2 fold change for RRIRSRPPRLPRPRPRPCDVPRP fall at or above the -0.01 mark?
NO

Does the reported shrunken log2 fold change for RRIRNRPPRLPRPRPRPKCSPRP fall at or above the -0.01 mark?
YES

Does the reported shrunken log2 fold change for RRIRYRPPRLPRPRPRPCWLPRP fall at or above the -0.01 mark?
YES

Does the reported shrunken log2 fold change for RRIRRRPPRLPRPRPRPIMTPRP fall at or above the -0.01 mark?
YES

Does the reported shrunken log2 fold change for RRIRKRPPRLPRPRPRPMLWPRP fall at or above the -0.01 mark?
YES

Does the reported shrunken log2 fold change for RRIRYRPPRLPRPRPRPISDPRP fall at or above the -0.01 mark?
NO

Does the reported shrunken log2 fold change for RRIRPRPPRLPRPRPRPNARPRP fall at or above the -0.01 mark?
YES

Does the reported shrunken log2 fold change for RRIRYRPPRLPRPRPRPWPAPRP fall at or above the -0.01 mark?
YES

Does the reported shrunken log2 fold change for RRIRKRPPRLPRPRPRPSTIPRP fall at or above the -0.01 mark?
NO

Does the reported shrunken log2 fold change for RRIRGRPPRLPRPRPRPVQNPRP fall at or above the -0.01 mark?
YES

Does the reported shrunken log2 fold change for RRIRDRPPRLPRPRPRPRCHPRP fall at or above the -0.01 mark?
NO

Does the reported shrunken log2 fold change for RRIRVRPPRLPRPRPRPAKMPRP fall at or above the -0.01 mark?
YES

Does the reported shrunken log2 fold change for RRIRRRPPRLPRPRPRPWPRPRP fall at or above the -0.01 mark?
YES

Does the reported shrunken log2 fold change for RRIRLRPPRLPRPRPRPPSHPRP fall at or above the -0.01 mark?
YES

Does the reported shrunken log2 fold change for RRIRRRPPRLPRPRPRPWIDPRP fall at or above the -0.01 mark?
NO

Does the reported shrunken log2 fold change for RRIRGRPPRLPRPRPRPSQIPRP fall at or above the -0.01 mark?
NO

Does the reported shrunken log2 fold change for RRIRERPPRLPRPRPRPHVYPRP fall at or above the -0.01 mark?
NO

Does the reported shrunken log2 fold change for RRIRPRPPRLPRPRPRPDWYPRP fall at or above the -0.01 mark?
NO

Does the reported shrunken log2 fold change for RRIRSRPPRLPRPRPRPESHPRP fall at or above the -0.01 mark?
NO

Does the reported shrunken log2 fold change for RRIRHRPPRLPRPRPRPQCTPRP fall at or above the -0.01 mark?
NO

Does the reported shrunken log2 fold change for RRIRKRPPRLPRPRPRPQTKPRP fall at or above the -0.01 mark?
YES

Does the reported shrunken log2 fold change for RRIRARPPRLPRPRPRPYKIPRP fall at or above the -0.01 mark?
NO

Does the reported shrunken log2 fold change for RRIRKRPPRLPRPRPRPQINPRP fall at or above the -0.01 mark?
NO

Does the reported shrunken log2 fold change for RRIRQRPPRLPRPRPRPRKNPRP fall at or above the -0.01 mark?
YES

Does the reported shrunken log2 fold change for RRIRKRPPRLPRPRPRPRAVPRP fall at or above the -0.01 mark?
YES

Does the reported shrunken log2 fold change for RRIRSRPPRLPRPRPRPETIPRP fall at or above the -0.01 mark?
YES

Does the reported shrunken log2 fold change for RRIRPRPPRLPRPRPRPNCWPRP fall at or above the -0.01 mark?
YES

Does the reported shrunken log2 fold change for RRIRPRPPRLPRPRPRPYFGPRP fall at or above the -0.01 mark?
NO

Does the reported shrunken log2 fold change for RRIRCRPPRLPRPRPRPGGFPRP fall at or above the -0.01 mark?
YES

Does the reported shrunken log2 fold change for RRIRERPPRLPRPRPRPADKPRP fall at or above the -0.01 mark?
NO

Does the reported shrunken log2 fold change for RRIRERPPRLPRPRPRPSDDPRP fall at or above the -0.01 mark?
NO

Does the reported shrunken log2 fold change for RRIRVRPPRLPRPRPRPMFGPRP fall at or above the -0.01 mark?
YES

Does the reported shrunken log2 fold change for RRIRNRPPRLPRPRPRPGDQPRP fall at or above the -0.01 mark?
YES

Does the reported shrunken log2 fold change for RRIRHRPPRLPRPRPRPFYVPRP fall at or above the -0.01 mark?
YES

Does the reported shrunken log2 fold change for RRIRLRPPRLPRPRPRPVKWPRP fall at or above the -0.01 mark?
YES

Does the reported shrunken log2 fold change for RRIRKRPPRLPRPRPRPIRLPRP fall at or above the -0.01 mark?
NO

Does the reported shrunken log2 fold change for RRIRPRPPRLPRPRPRPIKPPRP fall at or above the -0.01 mark?
NO

Does the reported shrunken log2 fold change for RRIRNRPPRLPRPRPRPKYNPRP fall at or above the -0.01 mark?
NO

Does the reported shrunken log2 fold change for RRIRARPPRLPRPRPRPSSYPRP fall at or above the -0.01 mark?
NO

Does the reported shrunken log2 fold change for RRIRERPPRLPRPRPRPWHMPRP fall at or above the -0.01 mark?
YES

Does the reported shrunken log2 fold change for RRIRGRPPRLPRPRPRPCSTPRP fall at or above the -0.01 mark?
YES

Does the reported shrunken log2 fold change for RRIRGRPPRLPRPRPRPVEEPRP fall at or above the -0.01 mark?
YES
